- measurement notes: NCI Yeast Anticancer Drug Screen. Data for the bub3 strain (AID 167)
- conditions used: S. cerevisiae bub3 mutant strain, at 50.0 µM, stronger effect = higher value
About 79,000 compounds went through this panel and 15% of them were active in at least one assay; those are over-represented in the sample as a whole.
metric name: growth inhibition (%)

compound	value units	quantitative result
Clc1ccc(CSCSCc2ccc(Cl)cc2)cc1	%	19.6
O=C(O)CC1CCCCCC1	%	32.8
Nc1ccc(S(=O)(=O)c2ccc(Nc3ccnc4cc(Cl)ccc34)cc2)cc1	%	1.6
CC(=O)/C(=C/c1ccc(F)cc1)C(=O)CCN(C)C	%	-11.5
O=C1OC(=O)c2c1cccc2[N+](=O)[O-]	%	-5.2
Nc1nnc(-c2ccc(Br)cc2)o1	%	-25.9
COC(=O)[C@@H]1[C@H](OC(C)=O)CCC2[C@@]3(C[C@@H](c4ccoc4)O[C@@H]3OC)[C@H](C)CC[C@]21C(=O)OC (some centres not stated)	%	-36.9
CCCCC1OCCOC1C1COCCO1 (configuration not stated)	%	2.55
C/C(=N\NC(=S)N1CC2CCC(CC2)C1)c1cccc(C)n1	%	18.4
N#Cc1c(O)c(N=Nc2ccccc2F)c(=O)n2c1[nH]c1ccccc12	%	-6.85
COC(=O)C1C=CN(N(C)C)C2=C1C(=O)c1c(O)cccc1C2=O (configuration not stated)	%	89.5
Cc1ccc(C(=O)c2ccccc2)cc1C[N+](C)(C)C	%	-5.3

###

- measurement notes: NCI Yeast Anticancer Drug Screen. Data for the bub3 strain (AID 167)
- conditions used: S. cerevisiae bub3 mutant strain, at 50.0 µM, stronger effect = higher value
- Method: Growth inhibition of yeast strains with defined genetic alterations is measured as a screen for potential anti-cancer activity. Selected strains with alterations in DNA damage repair or cell cycle control were exposed to compounds and growth inhibition was measured relative to vehicle treated controls. The strain used in this assay is bub3
The panel holds about 79,000 compounds, 15% with a hit somewhere; the sample as a whole holds those more often. Calls of active or inactive are those of the source. Rule as the data show it: active = growth inhibition above about 70%; inactive = the rest.

molecule	growth inhibition
Cc1cc(Cl)ccc1OCC(=O)OCC(C)(C)[N+](=O)[O-]	36.6% (inactive)
CCCCCC1NC(C)(C)CO1 (stereo not drawn)	9.65% (inactive)
COC1C(=O)CCC2(CO2)C1(O)C1(C)OC1CC=C(C)C (stereo not drawn)	-28.2% (inactive)
CC1=C(C(=O)NNC(=O)C[N+](C)(C)C)CC(C(=O)NNC(=O)C[N+](C)(C)C)=C(C)N1	-13.2% (inactive)
CCOC(=O)C12CCC(C(=O)OCC)(CC13OCCO3)C1(C2)OCCO1	7.35% (inactive)
CN(C)c1ncnc2c1ncn2CC(O)CN (stereo not drawn)	5.4% (inactive)
COCC(C)OC(=O)c1ccccc1Cl (stereo not drawn)	21.1% (inactive)
CCCCCCCCCCCC(=O)Nc1cc(Cl)c(OC)cc1OC	7.1% (inactive)
NC(Cc1ccccc1CP(=O)(O)O)C(=O)O (stereo not drawn)	-29.9% (inactive)
CCS(=O)(=O)/C=C/c1ccco1	19.6% (inactive)
c1ccc(C2CCOCO2)cc1 (stereo not drawn)	5.7% (inactive)
O=CNC1(CO)CCCCC1	-18.1% (inactive)
CC(=O)N1CCC(=O)c2ccccc21	-24.3% (inactive)

###

- measurement notes: NCI Yeast Anticancer Drug Screen. Data for the mlh1 rad18 strain (AID 175)
- conditions used: S. cerevisiae mlh1 rad18 strain growth inhibition; at 50.0 µM; stronger effect = higher value
About 79,000 compounds went through this panel and 15% of them were active in at least one assay; those are over-represented in the sample as a whole. Where a SMILES comes first, the peptide text is derived from it. The star is where a group is joined. Trt = c1ccc(C(c2ccccc2)(c2ccccc2)*)cc1; Cbz = O=C(OCc1ccccc1)*

compound	value units	growth inhibition
CCOc1ccc(-c2nnc(Nc3ccc(S(=O)(=O)N4CCCCC4)cc3)s2)cc1	%	16.7
CCCC(=O)c1ccc(=O)n(C)c1	%	17.9
N#Cc1cnn(-c2ccc(Br)cc2)c1N	%	6.3
COc1nc(C(=O)NNC(=O)c2nc(OC)c3ccccc3c2-c2ccccc2)c(-c2ccccc2)c2ccccc12	%	1.3
NCCCNCCS	%	17.1
COC(=O)C(CO)NC(=O)C(CSC(c1ccccc1)(c1ccccc1)c1ccccc1)NC(=O)OCc1ccccc1 (centres undefined) (Cbz-Cys(Trt)-Ser-OMe; configuration not given here)	%	84.2
COC1CCC(/C=C(\C#N)C2CCC(OC)CC2)CC1 (centres undefined)	%	30
COc1ccc(NC(=O)CCCC(=O)CC(=O)c2ccc(Cl)cc2)c(OC)c1	%	18.1
CC(=O)NC(C=O)C(O)C(O)C(O)C(=O)O (centres undefined) (tested in a mixture with another compound)	%	-4.9
O=c1[nH]c2nc3ccccc3c(=O)n2/c1=C/c1cccs1	%	-15.8
C/C=C(\CC)C(C#N)O[Si](C)(C)C (centres undefined)	%	-24.6
COc1ccc(OC)c(NC(=O)Nc2nccs2)c1	%	32.5
c1ccc2c[n+](CCCC[n+]3ccc4ccccc4c3)ccc2c1	%	44.8
NC1=C(O)c2cccc3cccc(c23)C1=O	%	16.4
O=C1Nc2ccc(Br)cc2C1(O)Cc1cccc([N+](=O)[O-])c1 (centres undefined)	%	11.8
CCCNc1ccc2c(c1)C(=O)c1ccccc1-2	%	-1.8
O=C1OC(c2cccc(Cl)c2)=N/C1=C\c1ccccc1	%	-5.05
CN(C)c1nc(=NCc2ccncc2)ss1	%	-16.8
CCOC(=O)c1ccc(N)c(C(O)(C(F)(F)F)C(F)(F)F)c1	%	95.6
O=C(O)C1c2ccccc2C(C(=O)O)c2ccccc21 (centres undefined)	%	31.8
O=COC(Cc1ccccc1)c1ccc2c(c1)OCO2 (centres undefined)	%	-3.05
COc1cc(NCCN2CCOCC2)c([N+](=O)[O-])cc1OC	%	8.15
CN(C)n1c(O)c(N=O)sc1=S	%	5.55
CCOC(=O)C(C)C(=O)C(C)C (centres undefined)	%	-9.35

Source listed as PubChem BioAssay (NCI).
